Molecular target: human LTBR on cells (human, UniProt P36941 31-435)
Experiment: cell-based or functional assay
Please respond with reported NFκB luc, 3.66 ng/ml, w/o x linker for every item in the list.
Numbers only, in RLU.

1) P1AF0064 (antibody, human IgG1, kappa, L234A L235A, V domains shown, human IgG1 PG LALA constant regions; V domains from rat immunization; also called LTBR (0064)) VH: EVQLQQYGAELGKPGTSVKLSCKVSGYNIGNTYIHWVIQRPGKGLEWIGRIDPTNGNTICTEKFKNKATLTADLSSNTAYMQLSQLKSDDTAIYFCAPTTLTTPDSFAYWGQGTLVTVSS VL: DIQMTQSPSQLSASVGDRVTLSCKASQNIYKYLNWYQQKLGEAPRLLIYSTNILQTGIPSRFSGSGSGTDYTLTISSLQPEDAATYFCQKYYSGFTFGSGTKLEMKR | 22000
2) P1AE9450 (antibody, human IgG1, kappa, L234A L235A, V domains shown, human IgG1 PG LALA; from transgenic rabbit immunization; also called LTBR (9450)) VH: EVQLLESGGGLVQPGGSLRLSCAASGFTVSSYVMKWFRQAPGKGLEWVSSISGSGGRPFYADSVKGRFTISRDNSKNALYLQMNSLRAEDTAVYYCANDMDVWGQGTTVTVSS VL: DIQMTQSPSSLSASVGDRVTITCRASQDISSFLKWYQQKPGKAPTLLIYAASALQSGVPSRFSGSGSGTDFTLTISSLQPEDFATYYCQQYNTYPLTFGGGTKVDIKR | 14400
3) P1AE9459 (antibody, human IgG1, kappa, L234A L235A, V domains shown, human IgG1 PG LALA; from transgenic rabbit immunization) VH: EVQLVESGGGLVQPGGSLRLSCAASGFTFSSYTMNWVRQAPGKGLEWVSGVAPSGDRTYYTDSVKGRFTISRDNAKNTLDLQMTSLRAEDAAIYICAQGFAFTNWGQGTMVTVSS VL: DIQMTQSPSSLSASVGDRVTITCRASQGISSALAWFQQKPGKAPKRLIFDASSLDSGVPSRFSGSGSGTDFTLTISSLQPEDFATYYCQQYNNYPLTFGGGTKVEMKR | 19900

Each binder below has a recorded value; state its NFκB luc, 3.66 ng/ml, w/o x linker.
1. P1AE9457 (antibody, human IgG1, kappa, L234A L235A, V domains shown, human IgG1 PG LALA; from transgenic rabbit immunization; also called LTBR (9457)) VH: EVQLLESGGGLVQPGGSLRLSCAASGFTFSNYAMTWVRQAPGKGLEWVSEISGSGGSTYYADSVKGRFTISRDNSKNTLYLQMNSLRAEDTAVYYCAKDDDGAYGDTMDVWGQGTTVTVSS VL: DIQMTQSPSSLSASIGDRVTITCRASQDISNYLNWYQQKPGKAPKLLIYAASALQSGVPSRFSGSGSGTDFTLTISSLQPEDFATYYCQHYKSYPYTFGQGTKVEIRR
2. P1AF0079 (antibody, human IgG1, kappa, L234A L235A, V domains shown, human IgG1 PG LALA; from transgenic rabbit immunization; also called LTBR (0079)) VH: EVQLLESGGALVQPGGSLRLSCAASGFTFSSYAMSWVRQAPGKGLEWVSVITGSSSSIDYADSVKGRFTISRDNSKNTLYLQMNSLRAEDTAVYYCAKGGSGVWSISTDFDYWGQGTLVTVSS VL: DIQMTQSPSFLSASVGDRVTITCQASQDISNYLNWYQQKPGKAPKHLIYAASSLHSGVPSRFSGSGSGAYFTLTITSLQPEDFATYYCQQSHSTPPTFGPGTKVDIKR

OUT:
[12300, 10700]

Per the record, P1AE9452 (antibody, human IgG1, kappa, L234A L235A, V domains shown, human IgG1 PG LALA; from transgenic rabbit immunization; also called LTBR (9452)) VH: EVQLLESGGGLVQPGGSLRLSCAAAGFTFSSYPMTWVRQAPGKGLEWVSLISPSGATTYYADSVKGRFTISRDTSKNTLYLQMNSLRAEDTAVYYCAKNHYPDDVIIKNYYFYGVDVWGQGTTVTVSS VL: DIQMTQSPSSLSASVGDRVTITCRASQDISNYLNWYQQKPGKAPKSLIYAASSLQSGVPSRFSGSGSGTDFTLTISSLQPEDFANYYCQQTHTIPYSFGQGTNLEIKR has NFκB luc, 3.66 ng/ml, w/o x linker of 10100
